Catalogue of compounds with associated pIC50
target_of_assay: GCN2 (Homo sapiens)
Sequence (Q9P2K8 whole entry): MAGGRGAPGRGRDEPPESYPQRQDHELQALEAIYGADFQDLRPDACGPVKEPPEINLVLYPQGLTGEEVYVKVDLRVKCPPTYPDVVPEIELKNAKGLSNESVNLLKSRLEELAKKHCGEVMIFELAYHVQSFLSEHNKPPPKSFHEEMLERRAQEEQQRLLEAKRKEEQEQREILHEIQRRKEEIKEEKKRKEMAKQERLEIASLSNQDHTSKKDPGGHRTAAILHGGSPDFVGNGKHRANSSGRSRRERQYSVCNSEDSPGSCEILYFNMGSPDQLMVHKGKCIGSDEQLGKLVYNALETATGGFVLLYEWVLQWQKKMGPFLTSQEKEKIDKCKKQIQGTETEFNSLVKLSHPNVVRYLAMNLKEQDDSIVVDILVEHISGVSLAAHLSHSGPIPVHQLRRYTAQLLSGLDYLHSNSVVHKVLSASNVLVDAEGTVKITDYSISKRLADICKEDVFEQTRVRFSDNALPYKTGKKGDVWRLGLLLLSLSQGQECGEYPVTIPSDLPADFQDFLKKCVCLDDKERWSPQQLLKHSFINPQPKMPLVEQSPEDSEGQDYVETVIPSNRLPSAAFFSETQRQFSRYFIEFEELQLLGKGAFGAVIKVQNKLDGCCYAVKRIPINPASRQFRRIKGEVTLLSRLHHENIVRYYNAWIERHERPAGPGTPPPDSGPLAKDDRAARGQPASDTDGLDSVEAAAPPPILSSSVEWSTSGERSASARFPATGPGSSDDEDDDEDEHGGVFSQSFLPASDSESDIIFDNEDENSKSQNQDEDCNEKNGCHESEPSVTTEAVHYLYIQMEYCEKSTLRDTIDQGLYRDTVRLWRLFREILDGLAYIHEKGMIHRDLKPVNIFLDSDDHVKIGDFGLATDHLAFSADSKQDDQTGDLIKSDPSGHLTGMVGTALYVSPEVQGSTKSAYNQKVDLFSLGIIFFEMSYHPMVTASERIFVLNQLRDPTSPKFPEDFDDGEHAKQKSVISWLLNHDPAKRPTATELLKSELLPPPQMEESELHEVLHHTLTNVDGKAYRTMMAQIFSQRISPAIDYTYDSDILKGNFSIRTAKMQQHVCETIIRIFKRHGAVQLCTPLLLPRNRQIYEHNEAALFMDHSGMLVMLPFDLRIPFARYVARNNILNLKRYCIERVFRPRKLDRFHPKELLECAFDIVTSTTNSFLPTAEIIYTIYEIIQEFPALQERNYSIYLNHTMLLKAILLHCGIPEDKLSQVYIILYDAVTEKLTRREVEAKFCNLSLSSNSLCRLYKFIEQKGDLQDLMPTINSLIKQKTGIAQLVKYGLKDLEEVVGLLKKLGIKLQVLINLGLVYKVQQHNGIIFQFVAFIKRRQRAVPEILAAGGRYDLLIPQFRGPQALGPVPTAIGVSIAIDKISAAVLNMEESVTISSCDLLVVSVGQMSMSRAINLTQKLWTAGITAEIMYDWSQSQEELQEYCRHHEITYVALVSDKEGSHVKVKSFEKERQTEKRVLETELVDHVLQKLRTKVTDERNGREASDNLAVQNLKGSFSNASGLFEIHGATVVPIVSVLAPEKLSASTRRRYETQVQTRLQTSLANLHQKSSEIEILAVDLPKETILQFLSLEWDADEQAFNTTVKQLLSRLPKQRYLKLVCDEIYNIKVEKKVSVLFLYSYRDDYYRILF
assay_info: GCN2 enzymatic endpoint assay: phosphorylation of GFP-eIF2α measured by TR-FRET (Lanthascreen)
Assay type: biochemical
particulars: tested as described in Example 77; compound and/or hydrochloride, dihydrochloride or trifluoroacetic acid salt; read-out: IC 50 Activity
pIC50: −log10 of the molar value. Where a name gives a salt, the structure may show the parent alone.

Answered examples (4):
1. CNC(=O)[C@]1(C)CC[C@@H](Nc2ncc3c(Br)nn(-c4ccc(-c5ncco5)c([C@H](C)C#N)c4)c3n2)C1	6.70 to 7.60
2. C[C@H](N)c1cc(Cl)cc(-n2nc(Br)c3cnc(N[C@@H]4CC[C@@](C)(CO)C4)nc32)c1 [hydrochloride]	6.70 to 7.60
3. Cc1nnc(-c2ccc(-n3nc(Br)c4cnc(N[C@@H]5CC[C@@](C)(N(C)C)C5)nc43)cc2CCC#N)s1	6.70 to 7.60
4. CNC(=O)[C@]1(C)CC[C@@H](Nc2ncc3c(Br)nn(-c4ccc(F)c(CCN)c4)c3n2)C1	6.70 to 7.60

Given the compound O=C([C@@H]1CC[C@@H](Nc2ncc3c(Br)nn(-c4ccc5ncccc5c4)c3n2)C1)N1CCNCC1 , what is its reported pIC50?
6.70 to 7.60

Given the compound CNC(=O)[C@]1(CC(=O)N(C)C)CC[C@@H](Nc2ncc3c(Br)nn(-c4cc(F)c5ncccc5c4)c3n2)C1 , what is its reported pIC50?
> 7.60

Given the compound CNS(=O)(=O)[C@H]1CC[C@@H](Nc2ncc3c(Br)nn(-c4ccc5ncccc5c4)c3n2)C1 , what is its reported pIC50?
6.00 to 6.30

Given the compound CNC(=O)C1(C)CC[C@@H](Nc2ncc3c(Br)nn(-c4cccc(CCCO)c4)c3n2)C1 (some centres unmarked) , what is its reported pIC50?
6.70 to 7.60
